- System: Escherichia coli
- Measurement notes: Antimicrobial activity against Escherichia coli ATCC 25922 at 100 ug/ml after 24 hrs by agar well diffusion assay
- Assay type: functional
- Measurement conditions: ATCC 25922, 24 h, read-out: DIZ
This listing pairs compounds with measured zone of inhibition at 100 µg/mL.
Express it in mm; write the number only.

Reference set, count: 5
Please report the recorded zone of inhibition at 100 µg/mL for Cc1ccc(-n2nnc(C3=NN(c4nc(-c5ccc(Cl)cc5)cs4)C(c4ccc(F)cc4)C3)c2C)cc1 (configuration not stated) .
29

What would you report for Cc1ccc(-n2nnc(C(=O)/C=C/c3ccc(N4CCCCC4)cc3)c2C)cc1 ?
28

What would you report for Cc1ccc(-n2nnc(C3=NN(c4nc(-c5ccc(Br)cc5)cs4)C(c4ccc(F)cc4)C3)c2C)cc1 (configuration not stated) ?
22

What would you report for Cc1ccc(-n2nnc(C3=NNC(c4ccc(C#N)cc4)C3)c2C)cc1 (configuration not stated) ?
30

What would you report for Cc1ccc(-n2nnc(C3=NN(c4nc(-c5ccccc5)cs4)C(c4ccc(F)cc4)C3)c2C)cc1 (configuration not stated) ?
16

***
Please report the recorded zone of inhibition at 100 µg/mL for Cc1ccc(-n2nnc(C3=NNC(c4ccc(F)cc4)C3)c2C)cc1 (configuration not stated) .
16

What would you report for Cc1ccc(-n2nnc(C3=NN(C(N)=S)C(c4ccc(F)cc4)C3)c2C)cc1 (configuration not stated) ?
22

What would you report for Cc1ccc(-n2nnc(C3=NNC(c4ccccc4)C3)c2C)cc1 (configuration not stated) ?
16

What would you report for Cc1ccc(-n2nnc(C(=O)/C=C/c3ccccc3)c2C)cc1 ?
32

What would you report for Cc1ccc(-n2nnc(C3=NN(C(=S)NC(=O)c4ccccc4)C(c4ccc(N5CCCCC5)cc4)C3)c2C)cc1 (configuration not stated) ?
32

What would you report for Cc1ccc(-n2nnc(C3=NN(C4=NC(=O)CS4)C(c4ccc(F)cc4)C3)c2C)cc1 (configuration not stated) ?
28

What would you report for Cc1ccc(-n2nnc(C(=O)/C=C/c3ccc(C#N)cc3)c2C)cc1 ?
16

====

- Tested on: Priestia megaterium
- Measurement notes: Antimicrobial activity against Bacillus megaterium ATCC 9885 after 24 hrs by two-fold serial dilution method
- Type: functional
- Measurement conditions: ATCC 9885, 24 h
This listing pairs compounds with measured MIC.
Express it in µg/mL; write the number only.

Reference set, count: 3
Please report the recorded MIC for Cc1ccc(-n2nnc(C(=O)/C=C/c3ccc(F)cc3)c2C)cc1 .
16.5

What would you report for Cc1ccc(-n2nnc(C(=O)/C=C/c3ccc(N4CCCCC4)cc3)c2C)cc1 ?
33

What would you report for Cc1ccc(-n2nnc(C3=NN(c4nc(-c5ccc(Br)cc5)cs4)C(c4ccc(F)cc4)C3)c2C)cc1 (centres undefined) ?
33

***
Please report the recorded MIC for Cc1ccc(-n2nnc(C3=NN(C(=S)Nc4ccccc4)C(c4ccc(F)cc4)C3)c2C)cc1 (centres undefined) .
16.5

====

- Test system: Priestia megaterium
- Measurement notes: Antimicrobial activity against Bacillus megaterium ATCC 9885 at 100 ug/ml after 24 hrs by agar well diffusion assay
- Assay type: functional
- Measurement conditions: ATCC 9885, 24 h, read-out: DIZ
Reported metric: zone of inhibition at 100 µg/mL (mm)
Express it in mm; write the number only.

Please report the recorded zone of inhibition at 100 µg/mL for Cc1ccc(-n2nnc(C3=NN(c4nc(-c5ccc(Br)cc5)cs4)C(c4ccc(F)cc4)C3)c2C)cc1 (centres undefined) .
22

What would you report for Cc1ccc(-n2nnc(C3=NNC(c4ccc(F)cc4)C3)c2C)cc1 (centres undefined) ?
16

What would you report for Cc1ccc(-n2nnc(C3=NN(C(=S)Nc4ccccc4)C(c4ccc(F)cc4)C3)c2C)cc1 (centres undefined) ?
20

What would you report for Cc1ccc(-n2nnc(C3=NN(C(=S)Nc4ccccc4)C(c4ccccc4)C3)c2C)cc1 (centres undefined) ?
24

***
Please report the recorded zone of inhibition at 100 µg/mL for Cc1ccc(-n2nnc(C3=NN(C(N)=S)C(c4ccc(F)cc4)C3)c2C)cc1 (centres undefined) .
18

What would you report for Cc1ccc(-n2nnc(C3=NN(c4nc(-c5ccccc5)cs4)C(c4ccc(F)cc4)C3)c2C)cc1 (centres undefined) ?
24

What would you report for Cc1ccc(-n2nnc(C3=NNC(c4ccc(C#N)cc4)C3)c2C)cc1 (centres undefined) ?
24

What would you report for Cc1ccc(-n2nnc(C3=NN(C(=S)NC(=O)c4ccccc4)C(c4ccc(N5CCCCC5)cc4)C3)c2C)cc1 (centres undefined) ?
30

What would you report for Cc1ccc(-n2nnc(C(=O)/C=C/c3ccc(N4CCCCC4)cc3)c2C)cc1 ?
20

====

- Tested on: Priestia megaterium
- Measurement notes: Antimicrobial activity against Bacillus megaterium ATCC 9885 at 100 ug/ml after 24 hrs by agar well diffusion assay
- Assay type: functional
- Measurement conditions: ATCC 9885, 24 h, read-out: DIZ
This listing pairs compounds with measured zone of inhibition at 100 µg/mL.
Express it in mm; write the number only.

Reference set, count: 2
Please report the recorded zone of inhibition at 100 µg/mL for Cc1ccc(-n2nnc(C3=NNC(c4ccccc4)C3)c2C)cc1 (stereo not drawn) .
16

What would you report for Cc1ccc(-n2nnc(C(=O)/C=C/c3ccc(F)cc3)c2C)cc1 ?
24

Next compound, zone of inhibition at 100 µg/mL to be filled in.
Please report the recorded zone of inhibition at 100 µg/mL for Cc1ccc(-n2nnc(C3=NN(C4=NC(=O)CS4)C(c4ccc(F)cc4)C3)c2C)cc1 (stereo not drawn) .
30

====

- Test system: Staphylococcus aureus
- Measurement notes: Antimicrobial activity against Staphylococcus aureus ATCC 29213 after 24 hrs by two-fold serial dilution method
- Format: functional
- Measurement conditions: ATCC 29213, 24 h
This listing pairs molecules with measured MIC.

Reference set, count: 4
Please report the recorded MIC for Cc1ccc(-n2nnc(C(=O)/C=C/c3ccc(N4CCCCC4)cc3)c2C)cc1 .
132 µg/mL

What would you report for Cc1ccc(-n2nnc(C3=NNC(c4ccc(N5CCCCC5)cc4)C3)c2C)cc1 (configuration not stated) ?
132 µg/mL

What would you report for Cc1ccc(-n2nnc(C3=NNC(c4ccccc4)C3)c2C)cc1 (configuration not stated) ?
8.25 µg/mL

What would you report for Cc1ccc(-n2nnc(C3=NN(c4nc(-c5ccc(Br)cc5)cs4)C(c4ccc(F)cc4)C3)c2C)cc1 (configuration not stated) ?
8.25 µg/mL

***
Please report the recorded MIC for Cc1ccc(-n2nnc(C(=O)/C=C/c3ccc(F)cc3)c2C)cc1 .
16.5 µg/mL

What would you report for Cc1ccc(-n2nnc(C3=NN(C(=S)NC(=O)c4ccccc4)C(c4ccc(N5CCCCC5)cc4)C3)c2C)cc1 (configuration not stated) ?
132 µg/mL

What would you report for Cc1ccc(-n2nnc(C3=NN(C(=S)Nc4ccccc4)C(c4ccc(C#N)cc4)C3)c2C)cc1 (configuration not stated) ?
33 µg/mL

Recorded values, source ChEMBL document CHEMBL2021863.
